Kindly supply the reported % of binding in the absence of HGF values for the records listed here.
Target: T1, cMet-Fc fusion protein (extracellular domain of the cMet receptor expressed as an Fc-fusion protein) (human, UniProt P08581 25-932)
T1 construct: extracellular domain; also called soluble cMet-Fc-fusion protein; soluble cMet receptor; not shown: Fc part
T1 sequence (P08581 25-932): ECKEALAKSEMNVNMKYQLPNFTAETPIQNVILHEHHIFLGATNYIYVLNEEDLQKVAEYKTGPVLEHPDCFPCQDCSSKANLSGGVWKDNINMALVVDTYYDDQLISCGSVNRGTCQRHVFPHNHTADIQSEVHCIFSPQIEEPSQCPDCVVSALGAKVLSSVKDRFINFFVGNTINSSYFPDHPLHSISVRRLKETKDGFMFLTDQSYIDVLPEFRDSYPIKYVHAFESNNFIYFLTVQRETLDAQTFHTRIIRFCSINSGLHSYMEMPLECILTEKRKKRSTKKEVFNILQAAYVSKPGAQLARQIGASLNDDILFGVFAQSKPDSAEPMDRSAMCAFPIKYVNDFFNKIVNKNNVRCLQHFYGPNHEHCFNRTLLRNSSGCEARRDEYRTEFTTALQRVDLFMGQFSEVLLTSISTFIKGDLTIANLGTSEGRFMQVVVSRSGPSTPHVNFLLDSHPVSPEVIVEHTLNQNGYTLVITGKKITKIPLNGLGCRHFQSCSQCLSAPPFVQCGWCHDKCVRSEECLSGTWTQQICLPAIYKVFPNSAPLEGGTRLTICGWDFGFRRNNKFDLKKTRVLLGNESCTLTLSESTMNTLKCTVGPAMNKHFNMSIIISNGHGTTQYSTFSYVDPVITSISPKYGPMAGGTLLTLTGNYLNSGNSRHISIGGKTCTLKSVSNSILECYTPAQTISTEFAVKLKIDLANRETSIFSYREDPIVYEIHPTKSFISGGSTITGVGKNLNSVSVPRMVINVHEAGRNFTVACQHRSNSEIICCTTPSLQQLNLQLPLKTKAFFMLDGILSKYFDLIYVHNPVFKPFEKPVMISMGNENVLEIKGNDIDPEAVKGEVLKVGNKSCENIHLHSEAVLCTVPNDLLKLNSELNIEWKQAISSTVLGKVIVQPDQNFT
Test: phage ELISA on cMet-Fc, competitor HGF 100 ng/mL
Method: These assays were conducted using the peptide-displaying phage discovered from the initial selection and screening campaigns using the first generation peptide libraries. Briefly, 96-well plates were coated overnight at 4 C with 0.5 μg/mL of cMet-Fc fusion protein or TRAIL-Fc fusion protein (background). […] The plates were incubated for 2 hours at room temperature, washed with PBST and cMet-binding peptide-displaying phage was detected using an HRP-conjugated anti-M13 antibody.
State just the number; it will be interpreted in %.

In plain terms, AGETTCLGWPTFVCVDYGT [548-E08 peptide-displaying phage (SEQ ID NO: 063)] has a documented % of binding in the absence of HGF of 102

In plain terms, AGLPKCSGPPWFSCYYGGT [545-A09 peptide-displaying phage (SEQ ID NO: 066)] has a documented % of binding in the absence of HGF of 44

In plain terms, GSYYDCREFQCNKPAP [465-A06 peptide-displaying phage (SEQ ID NO: 002)] has a documented % of binding in the absence of HGF of 56

In plain terms, AGSWHCAGPPSFECWEFGT [331-G04 peptide-displaying phage (SEQ ID NO: 055)] has a documented % of binding in the absence of HGF of 56

In plain terms, GSMNMCDTTDEISPTCHPSAP [441-H01 peptide-displaying phage (SEQ ID NO: 378)] has a documented % of binding in the absence of HGF of 91

In plain terms, AGGFACGPPWDICWMFGT [573-F04 peptide-displaying phage (SEQ ID NO: 011)] has a documented % of binding in the absence of HGF of 76

In plain terms, AGVNSCLGPPTFECYQMGT [332-C03 peptide-displaying phage (SEQ ID NO: 076)] has a documented % of binding in the absence of HGF of 37
